Target: HLA-B*83:01
Experiment: IEDB peptide-MHC binding, purified MHC/competitive/fluorescence; filed as Kd, often an IC50 or EC50 that approximates it; bounds were set here for any values at or beyond the usual limits of such assays
Conditions: source organism: Vibrio vulnificus CMCP6
pKd: −log10 of the molar value.
Readout Type: pKd

* LEMNDAPTA | ≤ 5.30

* * *

Molecular target: HLA-A*26:01
Assay: IEDB peptide-MHC binding, purified MHC/competitive/radioactivity; filed as Kd, often an IC50 or EC50 that approximates it; bounds were set here for any values at or beyond the usual limits of such assays
Settings: source organism: Dengue virus 3 Martinique/1243/1999
pKd: −log10 of the molar value.
Readout Type: pKd

* ETMETLLLL | 7.02
* ITVDDDGTM | 4.86

* * *

Biological target: HLA-B*27:05
Test: IEDB peptide-MHC binding, purified MHC/direct/fluorescence; filed as Kd, often an IC50 or EC50 that approximates it; bounds were set here for any values at or beyond the usual limits of such assays
Settings: source organism: Rickettsia felis
Readout Type: Kd

- GSFKEYVFW: ≥ 20 µM

* * *

Target: HLA-A*02:06
Assay: IEDB peptide-MHC binding, purified MHC/competitive/radioactivity; filed as Kd, often an IC50 or EC50 that approximates it; bounds were set here for any values at or beyond the usual limits of such assays
Conditions: source organism: Dengue virus 3 Sri Lanka/1266/2000
pKd: −log10 of the molar value.
Readout Type: pKd

* SLCLMMILPA | 7.19

* * *

Biological target: HLA-A*11:01
Test: IEDB peptide-MHC binding, purified MHC/direct/fluorescence; filed as Kd, often an IC50 or EC50 that approximates it; bounds were set here for any values at or beyond the usual limits of such assays
Settings: source organism: West Nile virus
pKd: −log10 of the molar value.
Reported pKd values follow for various sequences
Readout Type: pKd

• HSRRSRRSL = ≤ 4.70
• FTRYRKEAI = ≤ 4.70

* * *

Biological target: HLA-A*02:01
Assay: IEDB peptide-MHC binding, purified MHC/competitive/fluorescence; bounds were set here for any values at or beyond the usual limits of such assays
Settings: source organism: Human alphaherpesvirus 1 strain 17
pIC50: −log10 of the molar value.
Readout Type: pIC50

• NLTIAWPRM = ≤ 4.30

* * *

Target: HLA-B*15:42
Test: IEDB peptide-MHC binding, purified MHC/competitive/fluorescence; filed as Kd, often an IC50 or EC50 that approximates it; bounds were set here for any values at or beyond the usual limits of such assays
Details: source organism: Hantaan virus 76-118
pKd: −log10 of the molar value.
Readout Type: pKd

• TPGRYRTAV = ≤ 5.30

* * *

Target: HLA-A*11:01
Experiment: IEDB peptide-MHC binding, purified MHC/competitive/radioactivity; filed as Kd, often an IC50 or EC50 that approximates it; bounds were set here for any values at or beyond the usual limits of such assays
Conditions: source organism: Mammarenavirus brazilense
Readout Type: Kd

* SNSKEIPSFR | 1.88 µM

* * *

Molecular target: HLA-A*11:01
Experiment: IEDB peptide-MHC binding, purified MHC/direct/fluorescence; filed as Kd, often an IC50 or EC50 that approximates it; bounds were set here for any values at or beyond the usual limits of such assays
Conditions: source organism: Influenza A virus (A/swine/Bakum/5/95(H1N1))
Readout Type: Kd (nM)

* GINDRNFWR | 148
